- assay-name: NCI Yeast Anticancer Drug Screen. Data for the mec2-1 strain (AID 157)
- assay-setup: S. cerevisiae mec2-1 strain, at 50.0 µM, stronger effect = higher value
This is part of a sample that, as a whole, favours compounds with a hit. Of some 79,000 tested, about 15% had one in any assay.
# if value of growth inhibition reaches -20%, tag 1 (yes); if it stays below, tag 0 (no)

Task: Could you please find out whether CC(C)C1CC(O)C(C)C(C(C)C)C1 (stereo unspecified) has growth inhibition that meets -20% or exceeds it?
Result: 1 (yes)

Task: In plain terms: is recorded growth inhibition at least -20% for CC(C)c1ccccc1N1C(=O)CC(Sc2ccccc2N)C1=O (stereo unspecified) ?
Result: 1 (yes)

Task: Can CN1c2ccccc2C2CC(CC#N)CC(=O)C21 (stereo unspecified) be said to have growth inhibition at or above -20%?
Result: 1 (yes)

Task: Kindly determine if growth inhibition recorded for CC1(C)OC(C(F)(F)F)(C(F)(F)F)c2cc(C(C)(C)C)ccc2S1 is above or exactly -20%.
Result: 0 (no)

Task: Say whether C/C(=N/Nc1ccc([N+](=O)[O-])cc1[N+](=O)[O-])C(C)(C)C shows growth inhibition of -20% or more.
Result: 1 (yes)

Task: Please tell me: is the compound CC1N=C(SCC(=O)c2ccc(Cl)cc2)N2C(C)N=C(SCC(=O)c3ccc(Cl)cc3)N12 (stereo unspecified) at or over -20% in terms of growth inhibition?
Result: 1 (yes)
